Target: T1, Ax1 protein, extracellular domain (human, UniProt P30530 26-451)
T1 construct: extracellular domain; also called Axl; Ark
T1 sequence (looked up): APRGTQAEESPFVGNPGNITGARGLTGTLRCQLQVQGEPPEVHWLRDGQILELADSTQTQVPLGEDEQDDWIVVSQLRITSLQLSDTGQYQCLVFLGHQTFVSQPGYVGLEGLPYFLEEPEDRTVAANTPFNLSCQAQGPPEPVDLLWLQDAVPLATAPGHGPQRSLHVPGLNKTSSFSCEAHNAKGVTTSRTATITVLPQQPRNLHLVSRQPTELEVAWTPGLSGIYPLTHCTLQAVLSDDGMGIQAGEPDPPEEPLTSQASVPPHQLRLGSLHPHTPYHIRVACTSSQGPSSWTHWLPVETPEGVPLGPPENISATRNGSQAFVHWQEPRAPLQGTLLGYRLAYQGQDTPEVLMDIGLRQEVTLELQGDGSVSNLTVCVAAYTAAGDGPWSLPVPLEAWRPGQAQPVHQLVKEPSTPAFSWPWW
Experiment: ELISA, mutant diluted 1:9
Recorded Metric: Affinity ELISA CPE mutant ratio (1:9, pH 6.0/7.4)
Write no unit; give the number alone.

>>> assay_value("LC-P095A (antibody, V domains shown, CPE single point mutant) VH: EVQLVQSGAEVKKPGATVKISCKVSGYSFTGHTMNWIRQPPGKGLEWIGLIKPSNGGTSYNQKFKGRVTISADKSISTAYLQWSSLKASDTAMYYCAHGHYESYFAMDYWGQGTLVTVSS VL: DIQMTQSPSSLSASVGDRVTITCKASQDVSSAVAWYQQKPGQAPRLLIYWASTRHTGVPSRFSGSGSGTEFTLTISSLQPDDFATYYCQEHFSTALTFGQGTKVEIK")
2.99

Look up Affinity ELISA CPE mutant ratio (1:9, pH 6.0/7.4) for this binder: HC-E102M (antibody, V domains shown, CPE single point mutant) VH: EVQLVQSGAEVKKPGATVKISCKVSGYSFTGHTMNWIRQPPGKGLEWIGLIKPSNGGTSYNQKFKGRVTISADKSISTAYLQWSSLKASDTAMYYCAHGHYMSYFAMDYWGQGTLVTVSS VL: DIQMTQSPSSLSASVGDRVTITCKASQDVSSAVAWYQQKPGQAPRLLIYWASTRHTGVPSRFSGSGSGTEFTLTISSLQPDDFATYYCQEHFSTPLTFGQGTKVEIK
2.36
